- assay_procedure: In vivo pharmacokinetic experiments in rats
- Design: species or system Sprague−Dawley rats
- test_parameters: male, Sprague-Dawley, rat; SD rats, single oral dose equivalent to 5 mg/kg PAL, plasma PAL
measured_parameter: MRT (h)

input_smiles	measured_parameter	measured_value
CC(=O)c1c(C)c2cnc(Nc3ccc(N4CCNCC4)cn3)nc2n(C2CCCC2)c1=O	MRT	5.36

====

- assay_procedure: In vivo pharmacokinetic experiments in rats
- Set-up: species or system Sprague−Dawley rats
- test_parameters: male, Sprague-Dawley, rat; SD rats, single oral dose equivalent to 5 mg/kg PAL, plasma PAL
measured_parameter: Cmax (ng/mL)

compound	unit_text	measured_value
CC(=O)c1c(C)c2cnc(Nc3ccc(N4CCNCC4)cn3)nc2n(C2CCCC2)c1=O [PAL, Palbociclib]	ng/mL	347
